Each record here notes measured Quant. MBEC.
Test system: MRSA biofilms
Test: Quantitative determination of MBEC (Log10 reduction assay)
Type: cell-based, Staphylococcus aureus
Conditions: MRSA; >4 log10 reduction; fluence 10.2 J/cm^2; PS alone; Blue 470 nm (Erythrosin B: Green 527 nm)
Description: One hundred microlitres was removed from each well of row A of the recovery plate into row A of an appropriately labelled 96-well dilution plate; 100 μL was removed from row B of this recovery plate into row A of another 96-well dilution plate. […] These plates were kept for the “Quantitative Determination of MBEC (Log10 Reduction Assay)” described below. […] The quantitative MBEC was defined as the minimum concentration of test article that yielded a particular log 10 reduction in biofilm CFUs. […]

Recorded Quant. MBEC, per entry:
INSERT INTO results (molecule, reported_result) VALUES
  ('Cc1cc2nc3c(=O)[nH]c(=O)nc-3n(C[C@H](O)[C@H](O)[C@H](O)COP(=O)([O-])O)c2cc1C.[Na+] [PS1, Riboflavin-5′-Phosphate Sodium USP]', '>1 % w/V'),
  ('COc1cc(/C=C/C(=O)CC(=O)/C=C/c2ccc(O)c(OC)c2)ccc1O [PS3, Curcumin]', '>0.001 % w/V'),
  ('O=C1OC2(c3ccccc31)c1cc(I)c(O)c(I)c1Oc1c2cc(I)c(O)c1I [PS4, Erythrosin B]', '0.01 % w/V');

Now for a further molecule.
Which measured Quant. MBEC value corresponds to O=S(=O)([O-])c1ccc(N=Nc2c(O)ccc3cc(S(=O)(=O)[O-])ccc23)cc1.[Na+].[Na+] [PS2, Sunset Yellow FCF] ?
>1 % w/V

----------
Reported Quant. MBEC values are given for each entry in this list.
system: S. enterica biofilms; test: Quantitative determination of MBEC (Log10 reduction assay); format: cell-based, Salmonella enterica; conditions: S. enterica; >3 log10 reduction or max kill; fluence 25.5 J/cm^2; PS alone; Blue 470 nm (Erythrosin B: Green 527 nm)

Example compounds with recorded Quant. MBEC:
INSERT INTO measurements (compound, reported_result) VALUES
  ('Cc1cc2nc3c(=O)[nH]c(=O)nc-3n(C[C@H](O)[C@H](O)[C@H](O)COP(=O)([O-])O)c2cc1C.[Na+] [PS1, Riboflavin-5′-Phosphate Sodium USP]', '>1 % w/V'),
  ('O=C1OC2(c3ccccc31)c1cc(I)c(O)c(I)c1Oc1c2cc(I)c(O)c1I', '0.1 % w/V'),
  ('COc1cc(/C=C/C(=O)CC(=O)/C=C/c2ccc(O)c(OC)c2)ccc1O', '>0.001 % w/V');

Returns the measured Quant. MBEC for the input compound. Input: `O=S(=O)([O-])c1ccc(N=Nc2c(O)ccc3cc(S(=O)(=O)[O-])ccc23)cc1.[Na+].[Na+]`
>1 % w/V

----------
Overview of recorded MBC for various molecules
tested on: Salmonella enterica Serotype Choleraesuis (ATCC 10708); assay: Planktonic MBC (turbidity assay), MBEC Assay challenge plate outgrowth; assay type: cell-based; details: S. enterica; fluence 10.2 J/cm^2; PS alone; Blue 470 nm (Erythrosin B: Green 527 nm)

INSERT INTO measurements (molecule, reported_result) VALUES
  ('COc1cc(/C=C/C(=O)CC(=O)/C=C/c2ccc(O)c(OC)c2)ccc1O', '>0.001 % w/V'),
  ('O=S(=O)([O-])c1ccc(N=Nc2c(O)ccc3cc(S(=O)(=O)[O-])ccc23)cc1.[Na+].[Na+]', '>1 % w/V'),
  ('O=C1OC2(c3ccccc31)c1cc(I)c(O)c(I)c1Oc1c2cc(I)c(O)c1I', '0.01 (Ø) % w/V');

--- query ---
Look at this molecule and give its reported MBC. Cc1cc2nc3c(=O)[nH]c(=O)nc-3n(C[C@H](O)[C@H](O)[C@H](O)COP(=O)([O-])O)c2cc1C.[Na+] [PS1, Riboflavin-5′-Phosphate Sodium USP]
>1 % w/V
